# key: entry, value: SH2 binding enrichment
tested target: Grb2 SH2 (UniProt P62993)
Sequence (P62993 whole entry, looked up): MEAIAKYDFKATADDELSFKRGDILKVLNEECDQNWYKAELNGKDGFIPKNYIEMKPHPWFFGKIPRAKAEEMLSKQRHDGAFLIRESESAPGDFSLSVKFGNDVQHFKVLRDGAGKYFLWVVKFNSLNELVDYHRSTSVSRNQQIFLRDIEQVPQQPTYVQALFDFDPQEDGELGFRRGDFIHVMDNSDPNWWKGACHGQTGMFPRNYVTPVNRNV
protocol notes: SH2 binding enrichment of the phosphorylated peptide, bacterial display (enrichment ratio); higher = better substrate or ligand; peptides without Tyr show the background

The following sequences have reported results that may help.
Enquiry: Entry under review: CRAVKYLQMVD [AVPR2_Y117_G122D] . Reported SH2 binding enrichment?
Return: 0.798

Enquiry: Same for FITVGYVDDTQ [HLA-B_Y51_S48T]
Return: 0.779

Enquiry: Same for FLTQHYDAIPQ [ANG_Y38_K41I]
Return: 0.809

Enquiry: Same for YRDALYKSMVD [PHEX_Y250_F252S]
Return: 0.804

Enquiry: Same for NTVDYYDLYGG [PTPN11_Y63_G60V]
Return: 0.985

Proceeding to the next sequence to report its SH2 binding enrichment.
Enquiry: Entry under review: NSFKFYMSDDI [ATRX_Y204_C200S_YF] . Reported SH2 binding enrichment?
Return: 0.982

* * *

tested target: Hck (UniProt P08631)
Sequence (P08631 whole entry, looked up): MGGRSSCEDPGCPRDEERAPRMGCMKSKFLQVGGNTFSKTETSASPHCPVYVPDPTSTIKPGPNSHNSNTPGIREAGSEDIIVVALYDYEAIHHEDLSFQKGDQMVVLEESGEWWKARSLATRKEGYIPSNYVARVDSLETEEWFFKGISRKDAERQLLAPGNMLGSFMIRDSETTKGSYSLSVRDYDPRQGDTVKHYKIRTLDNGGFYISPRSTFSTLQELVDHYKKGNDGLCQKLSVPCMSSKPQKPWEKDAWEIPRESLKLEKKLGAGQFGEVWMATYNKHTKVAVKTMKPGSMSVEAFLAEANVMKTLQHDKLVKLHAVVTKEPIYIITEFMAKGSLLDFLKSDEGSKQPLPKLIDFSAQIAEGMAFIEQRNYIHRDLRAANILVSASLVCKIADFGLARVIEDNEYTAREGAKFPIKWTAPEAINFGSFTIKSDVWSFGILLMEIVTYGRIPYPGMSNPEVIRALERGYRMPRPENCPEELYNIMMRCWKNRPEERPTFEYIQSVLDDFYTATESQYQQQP
protocol notes: phosphorylation enrichment, bacterial display (enrichment ratio); higher = better substrate or ligand; peptides without Tyr show the background
Could you please classify the records by phosphorylation enrichment using these ranges: low-valued: < 0.5; mid-valued: ≥ 0.5 and < 0.9; high-valued: ≥ 0.9

Reference set (5 entries):
Enquiry: Categorize the following entry: GGTTLYPGIAD [ACTC1_Y308_M307L]
Return: low-valued

Enquiry: Same for TNYRFYLRSLE [MTM1_Y71_L70F]
Return: mid-valued

Enquiry: Same for RDLTHYLMKIL [ACTG1_Y188_D187H]
Return: high-valued

Enquiry: Same for EPVSDYINANI [PTPN11_Y304]
Return: mid-valued

Enquiry: Same for IDNKMYDPKMN [ENPP1_Y280]
Return: low-valued

More entries:
Enquiry: Categorize the following entry: GRLPEYNTRIA [CCDC151_Y542]
Return: low-valued

Enquiry: Same for DYYDLYGGEKK [PTPN11_Y66_F71K]
Return: high-valued

Enquiry: Same for ERPGVYTNVVE [F11_Y608]
Return: low-valued

Enquiry: Same for PSQRCYVYYYS [PTEN_Y174_R173C]
Return: high-valued

Enquiry: Same for SQINLYQDVML [ZNF806_Y33_A28S]
Return: high-valued

Enquiry: Same for TSNNPYFRDQA [RPGRIP1_Y846_A841T]
Return: low-valued

Enquiry: Same for TSHKGYVAFLE [CARD9_Y76_G72S]
Return: low-valued

Enquiry: Same for DFTEAYNSKIK [CLK1_Y305_P307S_YF]
Return: mid-valued

Enquiry: Same for DPADRYLTEQF [CDKL5_Y286_C291Y_YF]
Return: mid-valued

Enquiry: Same for DWWQEYVLNES [TGM1_Y267_R264W]
Return: mid-valued

Enquiry: Same for YADPYYDYEIE [ZC3H18_Y372]
Return: high-valued

Enquiry: Same for KKMEVYQSIAD [MYBPC3_Y548_L545M]
Return: high-valued

Enquiry: Same for LHAALYKRKLL [TTLL5_Y542_E543K]
Return: mid-valued

* * *

tested target: FGFR1 (UniProt P11362)
Sequence (P11362 whole entry, looked up): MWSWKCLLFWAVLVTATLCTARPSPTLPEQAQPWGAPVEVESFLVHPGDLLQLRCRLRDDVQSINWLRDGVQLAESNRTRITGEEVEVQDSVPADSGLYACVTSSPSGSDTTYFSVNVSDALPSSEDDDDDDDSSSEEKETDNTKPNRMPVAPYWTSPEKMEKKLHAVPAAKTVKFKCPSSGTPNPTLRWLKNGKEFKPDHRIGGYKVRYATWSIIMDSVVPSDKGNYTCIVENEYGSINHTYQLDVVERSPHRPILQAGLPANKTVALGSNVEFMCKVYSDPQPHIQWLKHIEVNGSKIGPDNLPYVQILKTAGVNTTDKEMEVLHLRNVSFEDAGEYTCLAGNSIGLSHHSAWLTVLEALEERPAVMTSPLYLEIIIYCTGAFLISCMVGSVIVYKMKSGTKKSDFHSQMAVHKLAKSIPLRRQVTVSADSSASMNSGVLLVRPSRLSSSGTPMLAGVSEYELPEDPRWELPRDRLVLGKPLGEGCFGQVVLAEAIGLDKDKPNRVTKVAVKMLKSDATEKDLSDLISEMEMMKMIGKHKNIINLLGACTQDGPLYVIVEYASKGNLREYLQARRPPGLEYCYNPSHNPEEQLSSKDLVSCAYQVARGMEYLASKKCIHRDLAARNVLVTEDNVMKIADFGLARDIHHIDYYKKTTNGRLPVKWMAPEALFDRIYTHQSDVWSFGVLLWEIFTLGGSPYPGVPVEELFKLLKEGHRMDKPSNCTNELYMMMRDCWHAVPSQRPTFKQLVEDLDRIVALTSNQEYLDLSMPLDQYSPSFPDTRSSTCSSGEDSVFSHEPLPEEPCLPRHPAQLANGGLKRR
protocol notes: phosphorylation enrichment, bacterial display (enrichment ratio); higher = better substrate or ligand; peptides without Tyr show the background
# key: entry, value: phosphorylation enrichment

The following sequences have reported results that may help.
Enquiry: Fill in the recorded phosphorylation enrichment for this sequence, with FGFR1 (UniProt P11362) as test system: EKLQKYFRKNP [EHHADH_Y682_Q685K_YF]
Return: 0.473

Enquiry: Same for FKDGQYWIRGR [ACSF3_Y466]
Return: 0.361

Enquiry: Same for FNNPAYYVLEG [INPPL1_Y986]
Return: 12.1

More entries:
Enquiry: Fill in the recorded phosphorylation enrichment for this sequence, with FGFR1 (UniProt P11362) as test system: FADIAYNYRHA [PAH_Y166_G171A]
Return: 0.322

Enquiry: Same for SVICTYSPALN [TP53_Y126_T123I]
Return: 0.61

Enquiry: Same for KSPDSYQKILP [ATM_Y1415_L1420P]
Return: 0.517

Enquiry: Same for YGSSSSGGAGG [RPA2_Y14_Y14S]
Return: 0.403

Enquiry: Same for QQLVAYFSKHT [SRC_Y232_A237T_YF]
Return: 0.562

* * *

tested target: Fes (UniProt P07332)
Sequence (P07332 whole entry, looked up): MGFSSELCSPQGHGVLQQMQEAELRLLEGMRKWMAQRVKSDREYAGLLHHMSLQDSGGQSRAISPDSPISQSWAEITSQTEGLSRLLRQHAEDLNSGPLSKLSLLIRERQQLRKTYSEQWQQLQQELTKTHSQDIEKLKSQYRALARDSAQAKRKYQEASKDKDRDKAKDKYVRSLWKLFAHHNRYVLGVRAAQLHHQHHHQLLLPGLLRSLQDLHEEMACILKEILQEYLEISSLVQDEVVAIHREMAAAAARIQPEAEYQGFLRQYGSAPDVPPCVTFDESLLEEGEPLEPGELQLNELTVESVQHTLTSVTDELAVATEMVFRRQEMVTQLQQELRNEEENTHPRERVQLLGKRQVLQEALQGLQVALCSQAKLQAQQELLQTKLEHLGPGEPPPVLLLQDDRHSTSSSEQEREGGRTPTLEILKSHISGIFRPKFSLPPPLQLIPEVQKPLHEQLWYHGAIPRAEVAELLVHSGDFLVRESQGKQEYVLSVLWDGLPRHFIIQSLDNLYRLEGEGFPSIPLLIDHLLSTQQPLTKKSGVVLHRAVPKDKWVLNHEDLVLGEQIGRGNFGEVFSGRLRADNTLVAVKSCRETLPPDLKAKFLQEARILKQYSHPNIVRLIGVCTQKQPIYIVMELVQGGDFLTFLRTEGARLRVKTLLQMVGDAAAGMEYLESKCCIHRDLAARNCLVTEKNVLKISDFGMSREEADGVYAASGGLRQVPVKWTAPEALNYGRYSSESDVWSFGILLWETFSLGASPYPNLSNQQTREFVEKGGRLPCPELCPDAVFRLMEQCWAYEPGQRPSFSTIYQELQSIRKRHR
protocol notes: phosphorylation enrichment, bacterial display (enrichment ratio); higher = better substrate or ligand; peptides without Tyr show the background
Short version: phosphorylation enrichment at least 0.9 is true (1), less is false (0).

Enquiry: Could you verify whether the entry PTTKSYFPHFD [HBA1_Y43_T42S] shows phosphorylation enrichment of no less than 0.9?
Return: true (1)

Enquiry: Same for SGPRRYTVAAL [TTR_Y125_I127V]
Return: false (0)

Enquiry: Same for GGTTLYPGIAD [ACTC1_Y308_M307L]
Return: false (0)

More entries:
Enquiry: Could you verify whether the entry HVIKLFGACSQ [RET_Y791_Y791F] shows phosphorylation enrichment of no less than 0.9?
Return: true (1)

Enquiry: Same for METKGYQSLPE [NR3C2_Y6_H7Q]
Return: false (0)

Enquiry: Same for NPIGLYSAETL [LDB3_Y202]
Return: false (0)

Enquiry: Same for TNYRFYLRSLE [MTM1_Y71_L70F]
Return: true (1)

Enquiry: Same for EMTRNYIIFIE [BCO2_Y294_G289E]
Return: true (1)

Enquiry: Same for GTTIHYNYMCN [TP53_Y234_C229G]
Return: true (1)

Enquiry: Same for IVGLLYRLLTE [SETX_Y1978]
Return: true (1)

Enquiry: Same for PDNKPYIFKVF [PIK3AP1_Y553_E551K]
Return: true (1)

Enquiry: Same for KLLRLYAVVTR [LYN_Y306_V303L]
Return: true (1)

Enquiry: Same for DYLEKYYKFGC [NNMT_Y24_S29C]
Return: true (1)

Enquiry: Same for PYTDPYYDYEI [ZC3H18_Y371_A368T]
Return: true (1)

Enquiry: Same for ADLAKYICENQ [ALB_Y287]
Return: true (1)

Enquiry: Same for NYADPYRQLQY [CTNND2_Y503]
Return: false (0)

Enquiry: Same for FLRTGYSVPFG [TGM1_Y370_YF]
Return: true (1)

Enquiry: Same for DPLLTYQFPPK [LMNA_Y481_R482Q]
Return: false (0)

Enquiry: Same for SIKDKYVTALC [KCNH2_Y611_Y616C]
Return: false (0)

* * *

System: c-Src
protocol notes: phosphorylation enrichment, bacterial display (enrichment ratio); higher = better substrate or ligand; peptides without Tyr show the background
endpoint label: phosphorylation enrichment
The reply should be a number, written without any unit.

Enquiry: Entry under review: RSFSPCDFQPC [TNS1_Y796_Y796C_YF] . Reported phosphorylation enrichment?
Return: 0.583

Enquiry: Same for SHGQDYLVGNK [GSTA1_Y147]
Return: 0.417

Enquiry: Same for LYDPDFMKVIL [CYP4A22_Y104_Y104F]
Return: 0.954

Enquiry: Same for QNVADYMRYLM [RPL5_Y207]
Return: 0.684

* * *

System: AncSZ
protocol notes: phosphorylation enrichment, bacterial display (enrichment ratio); higher = better substrate or ligand; peptides without Tyr show the background
endpoint label: phosphorylation enrichment
The reply should be a number, written without any unit.

The following sequences have reported results that may help.
Enquiry: Fill in the recorded phosphorylation enrichment for this sequence, with AncSZ as test system: EHFSYYGMKAV [SLC15A2_Y61_R57H]
Return: 1.01

Enquiry: Same for FAKTQYPDVFA [CRX_Y63_YF]
Return: 0.876

More entries:
Enquiry: Fill in the recorded phosphorylation enrichment for this sequence, with AncSZ as test system: KMKGDYFRFLA [YWHAG_Y130_YF]
Return: 0.722

* * *

tested target: Grb2 SH2 (UniProt P62993)
protocol notes: SH2 binding enrichment of the phosphorylated peptide, bacterial display (enrichment ratio); higher = better substrate or ligand; peptides without Tyr show the background
endpoint label: SH2 binding enrichment
The reply should be a number, written without any unit.

The following sequences have reported results that may help.
Enquiry: Entry under review: THPFLYLSLEI [MLH1_Y293] . Reported SH2 binding enrichment?
Return: 1.19

Enquiry: Same for ALCHYYKLNII [ETV6_Y402_R399C]
Return: 0.895

Enquiry: Same for GTTIHYNYMCN [TP53_Y234_C229G]
Return: 0.716

Enquiry: Same for TKDTFYKQRMF [GBA_Y451_P454R]
Return: 0.83

Proceeding to the next sequence to report its SH2 binding enrichment.
Enquiry: Entry under review: WNEVGYDDIGG [VCP_Y203_L198W] . Reported SH2 binding enrichment?
Return: 0.973

* * *

# key: entry, value: phosphorylation enrichment
tested target: Fyn (UniProt P06241)
Sequence (P06241 whole entry, looked up): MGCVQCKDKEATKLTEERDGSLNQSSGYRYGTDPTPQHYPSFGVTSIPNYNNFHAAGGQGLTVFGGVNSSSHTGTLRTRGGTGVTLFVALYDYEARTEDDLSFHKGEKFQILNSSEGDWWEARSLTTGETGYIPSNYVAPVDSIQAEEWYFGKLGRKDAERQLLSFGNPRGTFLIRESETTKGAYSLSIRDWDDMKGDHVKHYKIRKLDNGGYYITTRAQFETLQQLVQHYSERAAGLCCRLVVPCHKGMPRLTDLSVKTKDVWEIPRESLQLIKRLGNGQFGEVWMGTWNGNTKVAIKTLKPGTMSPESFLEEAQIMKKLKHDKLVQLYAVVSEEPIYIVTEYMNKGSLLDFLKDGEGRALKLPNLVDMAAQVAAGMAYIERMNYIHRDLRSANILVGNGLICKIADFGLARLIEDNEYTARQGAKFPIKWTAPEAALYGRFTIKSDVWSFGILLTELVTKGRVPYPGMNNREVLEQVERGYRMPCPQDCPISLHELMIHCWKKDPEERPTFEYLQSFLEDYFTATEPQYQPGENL
protocol notes: phosphorylation enrichment, bacterial display (enrichment ratio); higher = better substrate or ligand; peptides without Tyr show the background
The reply should be a number, written without any unit.

The following sequences have reported results that may help.
Enquiry: Entry under review: GILDVYIFLGP [GAA_Y340] . Reported phosphorylation enrichment?
Return: 0.505

Enquiry: Same for CRAVKYLQMVD [AVPR2_Y117_G122D]
Return: 0.503

Enquiry: Same for LKSEMYQKLFK [RGS13_Y146_L150F]
Return: 0.493

Enquiry: Same for VEQIHYIGQNE [HMOX2_Y140_R137Q]
Return: 0.462

Enquiry: Same for SIKDKYVTAVF [KCNH2_Y611_L615V_YF]
Return: 0.543

More entries:
Enquiry: Entry under review: AEPNIYQEKLS [USP54_Y1233_D1231N] . Reported phosphorylation enrichment?
Return: 0.727
